Origin of values: ChEMBL document CHEMBL3588851

# System: Coxsackievirus B3
# PROTOCOL_NOTES: Antiviral activity against coxsackievirus B3 infected in African green monkey Vero cells assessed as inhibition of virus-induced cytopathogenic effect dosed 1 hr after viral adsorption
# Assay type: functional, organism-based
# CONDITION_SUMMARY: Enterovirus B
MEASURED_PARAMETER: IC50 (µM)

1. NC(=O)c1ncn([C@@H]2O[C@H](CO)[C@@H](O)[C@H]2O)n1 [RIBAVIRIN]    1200
2. O=C1C=CC[C@@H]2[C@H]3C[C@H](O)CN4CCC[C@@H](CN12)[C@@H]34    197
3. O=C1CCC[C@@H]2[C@H]3CCCN4CCC[C@@](O)(CN12)[C@@H]34    252
4. O=C1C=C[C@@H](O)[C@@H]2[C@H]3CCC[N+]4([O-])CCC[C@@H](CN12)[C@@H]34 (stereo not given in full)    26.6
5. O=C1[C@@H](O)CC[C@@H]2[C@H]3CCCN4CCC[C@@H](CN12)[C@@H]34    184
